- target under test: HLA-B*07:02
- assay procedure: IEDB peptide-MHC binding, purified MHC/competitive/radioactivity; filed as Kd, often an IC50 or EC50 that approximates it; bounds were set here for any values at or beyond the usual limits of such assays
- stated conditions: source organism: Mammarenavirus guanaritoense

item sequence	measurement unit	Kd
TPNNFSSIV	nM	1370

###

- target under test: HLA-A*03:01
- assay procedure: IEDB peptide-MHC binding, purified MHC/direct/fluorescence; filed as Kd, often an IC50 or EC50 that approximates it; bounds were set here for any values at or beyond the usual limits of such assays
- stated conditions: source organism: Giardia lamblia ATCC 50803

item sequence	target under test	Kd
VSSKKCTAL	HLA-A*03:01	≥ 20 µM
PPQATAKYL	HLA-A*03:01	≥ 20 µM

Origin of the recorded values: the Immune Epitope Database (IEDB)
